Origin of measurements: patent US20110166062A1

# Experimental System: glucagon receptor (UniProt P47871 26-477, limits assumed)
# Sequence (P47871 26-477 limits assumed): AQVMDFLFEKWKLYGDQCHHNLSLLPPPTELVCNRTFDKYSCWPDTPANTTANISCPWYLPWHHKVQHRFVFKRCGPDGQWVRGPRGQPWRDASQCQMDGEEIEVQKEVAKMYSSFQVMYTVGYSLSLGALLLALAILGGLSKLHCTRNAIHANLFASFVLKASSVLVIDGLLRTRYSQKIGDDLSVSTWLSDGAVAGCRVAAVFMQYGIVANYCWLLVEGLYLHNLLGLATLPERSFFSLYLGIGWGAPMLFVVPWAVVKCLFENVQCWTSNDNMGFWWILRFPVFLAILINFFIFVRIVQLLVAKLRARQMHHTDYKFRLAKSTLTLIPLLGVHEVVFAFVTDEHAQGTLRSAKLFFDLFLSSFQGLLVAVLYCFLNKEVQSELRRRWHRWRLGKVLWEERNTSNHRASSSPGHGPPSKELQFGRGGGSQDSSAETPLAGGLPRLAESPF
# Assay Notes: cell-based or functional assay
Where no end group is shown, it is not given here.
Measured EC50 of individual entries
Field format: number, assumed nM, no unit text.

| Binder | Unit Spec | EC50 |
| --- | --- | --- |
| YSQGTFTSDYSKYLDEIHQKDFVNWLLAQ-NH2 [mt-109] | nM | 0.13 |
| YXEGTFISDYSIAMDKIHQQDFVNWLLAQKGKKNWLKHNITQ (C-terminal amide) [mt-100] | nM | 1460 |

Proceed to the following item.
Exercise: Return reported EC50; argument: YSQGTFTSDYSKYLDEIHQKDFVNWLLAGGPSSGAPPPS-NH2 [mt-116]
Key: 0.787
